Test: Solubilities of constituents in non-aqueous solvents
Assay type: physicochemical
Conditions: organic solvent or mixture; solvent glycerol; read-out: solubility in glycerol
Protocol: In a series of experiments, the solubilities of several constituents that may be used in the solution of the present invention were measured: […]
Structures can show the parent of a compound that is named as a salt.

COMPOUND: CN1CCc2cccc3c2[C@H]1Cc1ccc(O)c(O)c1-3 [Apomorphine HCl]
VALUE UNITS: mg/mL
solubility: 35
